- measurement-target: plasmepsin II (Plasmodium falciparum)
- Sequence (P46925 125-453): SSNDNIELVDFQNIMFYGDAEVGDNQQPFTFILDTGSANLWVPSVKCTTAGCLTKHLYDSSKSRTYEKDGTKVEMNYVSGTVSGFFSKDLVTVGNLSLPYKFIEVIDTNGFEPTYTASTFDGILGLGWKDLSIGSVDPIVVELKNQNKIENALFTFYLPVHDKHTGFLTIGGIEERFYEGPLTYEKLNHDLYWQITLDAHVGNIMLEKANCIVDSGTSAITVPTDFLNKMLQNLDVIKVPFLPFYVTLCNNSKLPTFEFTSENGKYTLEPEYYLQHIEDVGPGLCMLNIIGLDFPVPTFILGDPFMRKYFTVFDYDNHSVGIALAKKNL
metric-name: IC50

Please provide the recorded IC50 for C=CCOC(=O)N1C(CC(=O)NCCc2cc(OC)cc(OC)c2)CCC12CCCC2CNC(=O)C[C@H](O)[C@H](CC(C)C)NC(=O)OC(C)(C)C (relative stereo) [Compound 23] , tested on plasmepsin II (Plasmodium falciparum).
< 1000 µM
